The reported numbers originate from ChEMBL document CHEMBL3272229.

biological target: Adrenergic receptor alpha (Rattus norvegicus) (UniProt P15823+P23944+P43140+P22086+P19328+P22909); assay: Irreversible inhibition of alpha adrenergic receptor in rat vas deferens assessed as inhibition of NE-induced contractions at 2 x 10' -5 M after 30 mins relative to N1,N1'-(2,2'-disulfanediylbis(ethane-2,1-diyl))dioctane-1,8-diamine tetrahydrochloride; type: tissue-based
READOUT_LABEL: inhibition (%)
Give the value in % but do not write % after it.

[
  {
    "COMPOUND": "C=CCOc1ccccc1CNCCCCCCNCCSSCCNCCCCCCNCc1ccccc1OCC=C",
    "READOUT_LABEL": "inhibition",
    "UNITS_TEXT": "%",
    "VALUE": 71
  },
  {
    "COMPOUND": "COc1ccc(CNCCCCCCNCCSSCCNCCCCCCNCc2ccc(OC)c(OC)c2)cc1OC",
    "READOUT_LABEL": "inhibition",
    "UNITS_TEXT": "%",
    "VALUE": 24
  }
]

Identify inhibition associated with the compound `NCCCCCCCNCCSSCCNCCCCCCCN` 63

Find the measured inhibition of `COc1ccc(CNCCCCCCNCCSSCCNCCCCCCNCc2ccc(OC)cc2OC)c(OC)c1` and report it. 26

Determine its reported inhibition: `c1ccc(CNCCCCCCNCCSSCCNCCCCCCNCc2ccccc2)cc1` 90

Specify measured inhibition for `COc1ccccc1CNCCCCCCNCCSSCCNCCCCCCNCc1ccccc1OC` . 100

Given the compound `COc1ccccc1CNCCCCCNCCSSCCNCCCCCNCc1ccccc1OC` , write its reported inhibition. 59

Look up and report measured inhibition for this entry: `NCCCCCCCCCCCCNCCSSCCNCCCCCCCCCCCCN` 24

Output inhibition of `Clc1cccc(Cl)c1CNCCCCCCCNCCSSCCNCCCCCCCNCc1c(Cl)cccc1Cl` 39

Supply recorded inhibition for `COc1cccc(CNCCCCCCNCCSSCCNCCCCCCNCc2cccc(OC)c2OC)c1OC` here. 26

Return inhibition (reported value) for this compound: `Clc1ccccc1CNCCCCCCNCCSSCCNCCCCCCNCc1ccccc1Cl` 44
